# test_system: wild type MLL1 five-member complex (MLL1-5C) (Homo sapiens, UniProt Q03164)
# measurement_protocol: MLL1 Flashplate Assay
# details: read-out: MLL1 flash plate
Reported IC50 by item:

# compound, test_system, result
measured = [
    ("Nc1ncnc2c1ncn2Cc1c(N2CC[C@](N)(C(=O)NCc3cccnn3)C2)ccc(F)c1C(F)(F)F", "wild type MLL1 five-member complex (MLL1-5C) (Homo sapiens, UniProt Q03164)", "< 60 nM"),
    ("C[C@@H]1CN(C(=O)[C@@]2(N)CCN(c3ccc(F)c(C(F)(F)F)c3Cn3cnc4c(N)ncnc43)C2)CCO1", "wild type MLL1 five-member complex (MLL1-5C) (Homo sapiens, UniProt Q03164)", "< 60 nM"),
    ("Nc1ncnc2c1ncn2Cc1c(Br)ccc(Cl)c1N1CC[C@@](N)(C(=O)O)C1", "wild type MLL1 five-member complex (MLL1-5C) (Homo sapiens, UniProt Q03164)", "< 60 nM"),
    ("Nc1ncnc2c1ncn2Cc1c(N2CC[C@](N)(C(=O)N3CCC[C@@H](O)C3)C2)ccc(F)c1C(F)(F)F", "wild type MLL1 five-member complex (MLL1-5C) (Homo sapiens, UniProt Q03164)", "< 60 nM"),
    ("Nc1ncnc2c1ncn2Cc1c(N2CC[C@](N)(C(=O)NC3CC3)C2)ccc(Cl)c1Cl", "wild type MLL1 five-member complex (MLL1-5C) (Homo sapiens, UniProt Q03164)", "< 60 nM"),
]

In: Form field: reported IC50 of `CN(C)Cc1c(Cl)c(Cl)cc(N2CC[C@](N)(C(=O)NC3CC3)C2)c1Cn1cnc2c(N)ncnc21`
Out: < 60 nM

In: Queued: `CCc1c(Cl)ccc(N2CC[C@](N)(C(=O)NCCS(=O)(=O)c3ccccc3)C2)c1Cn1cnc2c(N)ncnc21`
Out: < 60 nM
